So I've got a bunch of compounds here, and I need their p53 reporter assay: % Effect values.
Tested on: p53 responsive β-lactamase reporter in HCT116 cells
Assay details: cells
Format: cell-based
Test conditions: 10% FBS 16Hr
One number for each entry, in %.

Some solved entries appear below for comparison.
Smiles text	Value type	Result value
CC(=O)N[C@H](C(=O)N[C@@H](CO)C(=O)N[C@@H](Cc1ccccc1)C(=O)N[C@]1(C)CCCCCCC=CCCC[C@@](C)(C(N)=O)NC(=O)[C@H](CC(C)C)NC(=O)[C@H](CC(C)C)NC(=O)[C@H](C)NC(=O)[C@H](Cc2c[nH]c3ccccc23)NC(=O)[C@H](Cc2ccc(O)cc2)NC(=O)[C@H](CCC(=O)O)NC1=O)[C@@H](C)O	p53 reporter assay: % Effect	4.432
CC(=O)N[C@@H](CCCCN)C(=O)NCCCCCC(=O)N[C@H](C(=O)N[C@@H](CO)C(=O)N[C@@H](Cc1ccccc1)C(=O)N[C@]1(C)CCCCCCC=CCCC[C@@](C)(C(N)=O)NC(=O)[C@H](CC(C)C)NC(=O)[C@H](CC(C)C)NC(=O)[C@H](C)NC(=O)[C@H](Cc2c[nH]c3ccccc23)NC(=O)[C@H](Cc2ccc(O)cc2)NC(=O)[C@H](CCC(=O)O)NC1=O)[C@@H](C)O	p53 reporter assay: % Effect	18.31

# evaluate next
For `CC(=O)N[C@@H](CCCCN)C(=O)NCCCCCC(=O)N[C@H](C(=O)N[C@@H](CO)C(=O)N[C@@H](Cc1ccccc1)C(=O)N[C@]1(C)CCCCCCC=CCCC[C@@](C)(C(=O)N[C@@H](CCC(=O)O)C(=O)N[C@@H](CC(N)=O)C(=O)N[C@@H](Cc2ccccc2)C(N)=O)NC(=O)[C@H](CC(C)C)NC(=O)[C@H](CC(C)C)NC(=O)[C@H](C)NC(=O)[C@H](Cc2c[nH]c3ccccc23)NC(=O)[C@H](Cc2ccc(O)cc2)NC(=O)[C@H](CCC(=O)O)NC1=O)[C@@H](C)O` on p53 responsive β-lactamase reporter in HCT116 cells, measured p53 reporter assay: % Effect was 78.69

----------
Assay details: Experimental LogD (partition coefficient)
Test conditions: not stated, Partition Coeff LogD
Positions of bridges follow the written chain, without caps; N, C: chain ends. Non-standard residues stand in square brackets, D forms with d. Residues, ends and D or L forms follow the SMILES beside them. Lys(N3) = [N-]=[N+]=NCCCC[C@H](N)C(=O)O; R8 = C=CCCCCCC[C@@](C)(N)C(=O)O; Cba = N[C@@H](CC1CCC1)C(=O)O; S5 = C=CCCC[C@](C)(N)C(=O)O; βAla = NCCC(=O)O; Sar = CNCC(=O)O
Exercise: state measured logD for each of the molecules provided.
One number for each entry.

Molecule	logD
CC(=O)N[C@@H](CCCCN=[N+]=[N-])C(=O)NCCC(=O)N[C@@H](CC(C)C)C(=O)N[C@H](C(=O)N[C@@H](Cc1ccccc1)C(=O)N[C@]1(C)CCCCCCC=CCCC[C@@](C)(C(=O)N[C@@H](CO)C(=O)N[C@@H](C)C(=O)N(C)CC(N)=O)NC(=O)[C@H](CC2CCC2)NC(=O)[C@H](CCC(N)=O)NC(=O)[C@H](C)NC(=O)[C@H](Cc2c[nH]c3ccccc23)NC(=O)[C@H](Cc2ccc(O)cc2)NC(=O)[C@H](CCC(=O)O)NC1=O)[C@@H](C)O [MP-566] (Ac-[Lys(N3)][βAla]LTF[R8]EYWAQ[Cba][S5]SA[Sar]-NH2; staple 6-13)	2.69
CC(=O)N[C@@H](CCCCN=[N+]=[N-])C(=O)N[C@@H](CCCCN)C(=O)N[C@@H](CC(C)C)C(=O)N[C@H](C(=O)N[C@@H](Cc1ccccc1)C(=O)N[C@]1(C)CCCCCCC=CCCC[C@@](C)(C(=O)N[C@@H](CO)C(=O)N[C@@H](C)C(=O)N[C@@H](C)C(N)=O)NC(=O)[C@H](CC2CCC2)NC(=O)[C@H](CCC(N)=O)NC(=O)[C@H](C)NC(=O)[C@H](Cc2c[nH]c3ccccc23)NC(=O)[C@H](Cc2ccc(O)cc2)NC(=O)[C@H](CCC(=O)O)NC1=O)[C@@H](C)O	2.83

Please report logD for every entry that follows.
1. CC(=O)N[C@@H](CCCNC(=N)N)C(=O)N[C@H](C(=O)N[C@@H](Cc1ccccc1)C(=O)N[C@]1(C)CCCCCCC=CCCC[C@@](C)(C(=O)N[C@@H](CO)C(=O)N[C@@H](C)C(=O)N[C@@H](C)C(N)=O)NC(=O)[C@H](CC2CCC2)NC(=O)[C@H](CC(C)C)NC(=O)[C@H](CCC(N)=O)NC(=O)[C@H](Cc2c[nH]c3ccccc23)NC(=O)[C@H](Cc2ccc(O)cc2)NC(=O)[C@H](CCC(=O)O)NC1=O)[C@@H](C)O [MP-191] (Ac-RTF[R8]EYWQL[Cba][S5]SAA-NH2; staple 4-11)
2. CC(=O)N[C@@H](CCCCN=[N+]=[N-])C(=O)NCCC(=O)N[C@@H](CC(C)C)C(=O)N[C@H](C(=O)N[C@@H](Cc1ccccc1)C(=O)N[C@]1(C)CCCCCCC=CCCC[C@@](C)(C(=O)N2CCC[C@H]2C(=O)N2CCC[C@H]2C(=O)N2CCC[C@H]2C(=O)N2CCC[C@H]2C(=O)N2CCC[C@H]2C(=O)N2CCC[C@H]2C(N)=O)NC(=O)[C@H](CC2CCC2)NC(=O)[C@H](CCC(N)=O)NC(=O)[C@H](C)NC(=O)[C@H](Cc2c[nH]c3ccccc23)NC(=O)[C@H](Cc2ccc(O)cc2)NC(=O)[C@H](CCC(=O)O)NC1=O)[C@@H](C)O
3. CC(=O)N[C@@H](CCCNC(=N)N)C(=O)N[C@@H](CCCNC(=N)N)C(=O)NCCC(=O)N[C@@H](CC(C)C)C(=O)N[C@H](C(=O)N[C@@H](Cc1ccccc1)C(=O)N[C@]1(C)CCCCCCC=CCCC[C@@](C)(C(=O)N[C@@H](CO)C(=O)N[C@@H](C)C(=O)N[C@@H](C)C(N)=O)NC(=O)[C@H](CC2CCC2)NC(=O)[C@H](CCC(N)=O)NC(=O)[C@H](C)NC(=O)[C@H](Cc2c[nH]c3ccccc23)NC(=O)[C@H](Cc2ccc(O)cc2)NC(=O)[C@H](CCC(=O)O)NC1=O)[C@@H](C)O
4. CC(=O)N[C@@H](CCCCN=[N+]=[N-])C(=O)NCCC(=O)N[C@@H](CC(C)C)C(=O)N[C@@H](CCCCN)C(=O)N[C@@H](Cc1ccccc1)C(=O)N[C@]1(C)CCCCCCC=CCCC[C@@](C)(C(=O)N[C@@H](CO)C(=O)N[C@@H](C)C(=O)N[C@@H](C)C(N)=O)NC(=O)[C@H](CC2CCC2)NC(=O)[C@H](CCC(N)=O)NC(=O)[C@H](C)NC(=O)[C@H](Cc2c[nH]c3ccccc23)NC(=O)[C@H](Cc2ccc(O)cc2)NC(=O)[C@H](CCC(=O)O)NC1=O [MP-547, AZIDE-ATSP-7041 (T2K)]

1. 2.72
2. 2.28
3. 2.47
4. 3.02

Please state, for each entry, its recorded logD.
1. CC(C)C[C@H](NC(=O)CCNC(=O)[C@@H](N)CCCCN=[N+]=[N-])C(=O)N[C@H](C(=O)N[C@@H](Cc1ccccc1)C(=O)N[C@]1(C)CCCCCCC=CCCC[C@@](C)(C(N)=O)NC(=O)[C@H](CC2CCC2)NC(=O)[C@H](CCC(N)=O)NC(=O)[C@H](C)NC(=O)[C@H](Cc2c[nH]c3ccccc23)NC(=O)[C@H](Cc2ccc(O)cc2)NC(=O)[C@H](CCC(=O)O)NC1=O)[C@@H](C)O [MP-327] (H-[Lys(N3)][βAla]LTF[R8]EYWAQ[Cba][S5]-NH2; staple 6-13)
2. CC(=O)N[C@@H](CCCCN=[N+]=[N-])C(=O)NCCC(=O)N[C@@H](CCCCN)C(=O)N[C@H](C(=O)N[C@@H](Cc1ccccc1)C(=O)N[C@]1(C)CCCCCCC=CCCC[C@@](C)(C(=O)N[C@@H](CO)C(=O)N[C@@H](C)C(=O)N[C@@H](C)C(N)=O)NC(=O)[C@H](CC2CCC2)NC(=O)[C@H](CCC(N)=O)NC(=O)[C@H](C)NC(=O)[C@H](Cc2c[nH]c3ccccc23)NC(=O)[C@H](Cc2ccc(O)cc2)NC(=O)[C@H](CCC(=O)O)NC1=O)[C@@H](C)O [MP-546, AZIDE-ATSP-7041 (L1K)]

2.83
2.85
